Let's go through some recorded ΔTm values for Serine/threonine-protein kinase Chk2 (Homo sapiens) together.
readout-name: ΔTm (°C)

- molecule: "CC(C)c1nn(-c2c(Cl)cccc2Cl)c2nc(Cc3ccc(OCCO)cc3)[nH]c(=O)c12"
  readout-name: "ΔTm"
  unit-string: "°C"
  data-value: 3.6
- molecule: "O=c1cc(N2CCOCC2)oc2c(-c3ccccc3)cccc12"
  readout-name: "ΔTm"
  unit-string: "°C"
  data-value: -0.4
- molecule: "Cc1cncc2cccc(S(=O)(=O)N3CCCNC[C@@H]3C)c12"
  readout-name: "ΔTm"
  unit-string: "°C"
  data-value: 1.5
- molecule: "Cc1cc(C=C2C(=O)C=CC2=O)cc(C)c1O"
  readout-name: "ΔTm"
  unit-string: "°C"
  data-value: 2.5
- molecule: "COc1cc(OC)c(/C=C2\\C(=O)Nc3ccccc32)c(OC)c1"
  readout-name: "ΔTm"
  unit-string: "°C"
  data-value: -0.7
- molecule: "O=C1NC(=O)c2c1c1c3ccccc3[nH]c1n1cncc21 [ISOGRANULATIMIDE]"
  readout-name: "ΔTm"
  unit-string: "°C"
  data-value: 6.6
- molecule: "CC(C)(C)c1nc2c3ccc(F)cc3c3c(=O)[nH]ccc3c2[nH]1"
  readout-name: "ΔTm"
  unit-string: "°C"
  data-value: 14.1
- molecule: "CCN(CC)CCNC(=O)c1c(C)[nH]c(/C=C2\\C(=O)Nc3ccc(Cl)cc32)c1C [SU-11652]"
  readout-name: "ΔTm"
  unit-string: "°C"
  data-value: 10.3
- molecule: "C[C@@H](N)[C@H]1CC[C@H](C(=O)Nc2ccncc2)CC1"
  readout-name: "ΔTm"
  unit-string: "°C"
  data-value: -0.7
- molecule: "Nc1cccc(-c2cc3c(Oc4cccc(O)c4)ncnc3[nH]2)c1"
  readout-name: "ΔTm"
  unit-string: "°C"
  data-value: 1.7

The measurements presented in this section are drawn from ChEMBL document CHEMBL1145498.
